Test system: SJSA-1 (Osteosarcoma)
experimental.details: Bliss excess, mean over the matrix (fraction); higher = more synergy
Output Criterion met for Bliss excess not less than -0.04; output Criterion not met otherwise.

Query string: Quick check, Bliss excess >= -0.04? C=CCn1c(=O)c2cnc(Nc3ccc(N4CCN(C)CC4)cc3)nc2n1-c1cccc(C(C)(C)O)n1 [AZD1775] + CCc1c2c(nc3ccc(O)cc13)-c1cc3c(c(=O)n1C2)COC(=O)[C@]3(O)CC [SN-38] (first compound max 1 µM, partner max 0.3 µM)
Result string: Criterion not met

Query string: Given the entry CC1(C)CCC(CN2CCN(c3ccc(C(=O)NS(=O)(=O)c4ccc(NCC5CCOCC5)c([N+](=O)[O-])c4)c(Oc4cnc5[nH]ccc5c4)c3)CC2)=C(c2ccc(Cl)cc2)C1 [Venetoclax] + C[C@@H](Nc1cc(F)cc(F)c1)c1cc(C(=O)N(C)C)cc2c(=O)cc(N3CCOCC3)oc12 [AZD8186] (first compound max 1 µM, 7x7, partner max 3 µM) , answer whether its Bliss excess meets or surpasses -0.04.
Result string: Criterion met

Query string: Entry CCc1c2c(nc3ccc(O)cc13)-c1cc3c(c(=O)n1C2)COC(=O)[C@]3(O)CC [SN-38] + O=C(c1cc(Cc2n[nH]c(=O)c3ccccc23)ccc1F)N1CCN(C(=O)C2CC2)CC1 [Olaparib] (first compound max 0.3 µM, 7x7, partner max 10 µM) : is its Bliss excess no less than -0.04?
Result string: Criterion met

Query string: Assess whether reported Bliss excess for Cc1c2c(nn1C)CSCc1cc(n(C)n1)CSc1cc(c3ccccc3c1)OCCCc1c(C(=O)O)n(C)c3c-2c(Cl)ccc13 [AZD5991] + Cn1cnc2c(F)c(Nc3ccc(Br)cc3Cl)c(C(=O)NOCCO)cc21 [Selumetinib] (first compound max 1 µM, 7x7, partner max 3 µM) sits at -0.04 or higher.
Result string: Criterion not met

Query string: Does CN(CCO)CC[C@H](CSc1ccccc1)Nc1ccc(S(=O)(=O)NC(=O)c2ccc(N3CCC([C@@H](O)c4ccccc4-c4ccc(Cl)cc4)CC3)cc2)cc1S(=O)(=O)C(F)(F)F [AZD4320] + Cn1cnc2c(F)c(Nc3ccc(Br)cc3Cl)c(C(=O)NOCCO)cc21 [Selumetinib] (first compound max 1 µM, 7x7, partner max 3 µM) have a reported Bliss excess of at least -0.04?
Result string: Criterion met

Query string: For this molecule, is measured Bliss excess -0.04 or higher? CN(CCO)CC[C@H](CSc1ccccc1)Nc1ccc(S(=O)(=O)NC(=O)c2ccc(N3CCC([C@@H](O)c4ccccc4-c4ccc(Cl)cc4)CC3)cc2)cc1S(=O)(=O)C(F)(F)F [AZD4320] + C[C@@H](Nc1cc(F)cc(F)c1)c1cc(C(=O)N(C)C)cc2c(=O)cc(N3CCOCC3)oc12 [AZD8186] (first compound max 1 µM, 7x7, partner max 3 µM)
Result string: Criterion not met

Query string: # check: Bliss excess of CC(=O)c1c(C)c2cnc(Nc3ccc(N4CCNCC4)cn3)nc2n(C2CCCC2)c1=O [Palbociclib] + Cc1c2c(nn1C)CSCc1cc(n(C)n1)CSc1cc(c3ccccc3c1)OCCCc1c(C(=O)O)n(C)c3c-2c(Cl)ccc13 [AZD5991] (first compound max 10 µM, 7x7, partner max 1 µM) is greater than or equal to -0.04
Result string: Criterion not met

Query string: Kindly determine if Bliss excess recorded for O=C(c1cc(Cc2n[nH]c(=O)c3ccccc23)ccc1F)N1CCN(C(=O)C2CC2)CC1 [Olaparib] + CN(CC[C@H](CSC1=CC=CC=C1)NC2=C(C=C(C=C2)S(=O)(=O)NC(=O)C3=CC=C(C=C3)N4CCC(CC4)[C@H](C5=CC=CC=C5C6=CC=C(C=C6)Cl)O)S(=O)(=O)C(F)(F)F)CCO [AZD4320] (first compound max 10 µM, 7x7, partner max 1 µM) is above or exactly -0.04.
Result string: Criterion not met

* * *

Tested on: PC-3 (Prostate Carcinoma)
experimental.details: Bliss excess, mean over the matrix (fraction); higher = more synergy
Label FALSE if Bliss excess falls below -0.03; label TRUE in every other case.

Query string: Is the recorded value of Bliss excess equal to or greater than -0.03 for this compound? COc1nnc2ccc(N3CCC(c4ccc(OCCN5CCN(C)C(=O)[C@H]5C)cc4)CC3)nn12 [AZD5153] + C[C@@H]1COCCN1C2=NC(=NC(=C2)C3(CC3)[S@](=N)(=O)C)C4=C5C=CNC5=NC=C4 [AZD6738] (first compound max 1 µM, 7x7, partner max 10 µM)
Result string: TRUE

Query string: Identify whether the reported Bliss excess of the following compound is -0.03 or greater: Cn1cnc2c(F)c(Nc3ccc(Br)cc3Cl)c(C(=O)NOCCO)cc21 [Selumetinib] + C=CCn1c(=O)c2cnc(Nc3ccc(N4CCN(C)CC4)cc3)nc2n1-c1cccc(C(C)(C)O)n1 [AZD1775] (first compound max 10 µM, partner max 1 µM)
Result string: FALSE

Query string: Is reported Bliss excess greater than or equal to -0.03 here: CC(=O)Nc1cccc(-n2c(=O)n(C3CC3)c(=O)c3c(Nc4ccc(I)cc4F)n(C)c(=O)c(C)c32)c1 [Trametinib] + Cc1nc(-c2cn3c(n2)-c2ccc(-c4cnn(C(C)(C)C(N)=O)c4)cc2OCC3)n(C(C)C)n1 [Taselisib] (first compound max 1 µM, 7x7, partner max 10 µM)
Result string: TRUE

Query string: Is it the case that CC1(C)CCC(CN2CCN(c3ccc(C(=O)NS(=O)(=O)c4ccc(NCC5CCOCC5)c([N+](=O)[O-])c4)c(Oc4cnc5[nH]ccc5c4)c3)CC2)=C(c2ccc(Cl)cc2)C1 [Venetoclax] + C[C@@H]1COCCN1C2=NC(=NC(=C2)C3(CC3)[S@](=N)(=O)C)C4=C5C=CNC5=NC=C4 [AZD6738] (first compound max 1 µM, 7x7, partner max 10 µM) has Bliss excess reaching or exceeding -0.03?
Result string: FALSE

Query string: Hi, just wondering whether Cc1c2c(nn1C)CSCc1cc(n(C)n1)CSc1cc(c3ccccc3c1)OCCCc1c(C(=O)O)n(C)c3c-2c(Cl)ccc13 [AZD5991] + CCN(CCO)CCCOc1ccc2c(Nc3cc(CC(=O)Nc4cccc(F)c4)[nH]n3)ncnc2c1 [AZD2811] (first compound max 1 µM, 7x7, partner max 1 µM) shows Bliss excess of -0.03 or higher.
Result string: FALSE

Query string: Check if Bliss excess >= -0.03 (inclusive). Item: NC1(C(=O)N[C@@H](CCO)c2ccc(Cl)cc2)CCN(c2ncnc3[nH]ccc23)CC1 [Capivasertib] + CC(=O)c1c(C)c2cnc(Nc3ccc(N4CCNCC4)cn3)nc2n(C2CCCC2)c1=O [Palbociclib] (first compound max 10 µM, 7x7, partner max 10 µM)
Result string: TRUE

Query string: Please check the record COc1cccc2c1C(=O)c1c(O)c3c(c(O)c1C2=O)C[C@@](O)(C(=O)CO)C[C@@H]3O[C@H]1C[C@H](N)[C@H](O)[C@H](C)O1 [Doxorubicin] + Cc1cc2ncnn2cc1Nc1ncc2c(n1)n(C1CCOCC1)c(=O)n2C [AZD7648] (first compound max 1 µM, 7x7, partner max 10 µM) and state if its Bliss excess is at or above -0.03.
Result string: TRUE

Query string: Is Bliss excess for CC1(C)CCC(CN2CCN(c3ccc(C(=O)NS(=O)(=O)c4ccc(NCC5CCOCC5)c([N+](=O)[O-])c4)c(Oc4cnc5[nH]ccc5c4)c3)CC2)=C(c2ccc(Cl)cc2)C1 [Venetoclax] + C[C@@H](Nc1cc(F)cc(F)c1)c1cc(C(=O)N(C)C)cc2c(=O)cc(N3CCOCC3)oc12 [AZD8186] (first compound max 1 µM, 7x7, partner max 3 µM) at or above -0.03?
Result string: TRUE

Query string: I'd appreciate it if you could say whether CN(CCO)CC[C@H](CSc1ccccc1)Nc1ccc(S(=O)(=O)NC(=O)c2ccc(N3CCC([C@@H](O)c4ccccc4-c4ccc(Cl)cc4)CC3)cc2)cc1S(=O)(=O)C(F)(F)F [AZD4320] + Cc1cc2ncnn2cc1Nc1ncc2c(n1)n(C1CCOCC1)c(=O)n2C [AZD7648] (first compound max 1 µM, 7x7, partner max 10 µM) has Bliss excess at least equal to -0.03.
Result string: FALSE

* * *

Give measured combination Emax for each item. Keep answers brief.
Tested on: MOG-G-CCM (Low Grade Glioma)
experimental.details: combination Emax (second highest fraction inhibited in the dose matrix, 72 h); higher = more inhibition; extreme values may be limits of the assay
// print number alone

Query string: Return the recorded combination Emax value; entry: Cn1cnc2c(F)c(Nc3ccc(Br)cc3Cl)c(C(=O)NOCCO)cc21 [Selumetinib] + C=CCn1c(=O)c2cnc(Nc3ccc(N4CCN(C)CC4)cc3)nc2n1-c1cccc(C(C)(C)O)n1 [AZD1775] (first compound max 10 µM, partner max 1 µM)
Result string: 0.357

Query string: Consider the compound Cc1nc(Nc2ncc(C(=O)Nc3c(C)cccc3Cl)s2)cc(N2CCN(CCO)CC2)n1 [Dasatinib] + CC(=O)Nc1cccc(-n2c(=O)n(C3CC3)c(=O)c3c(Nc4ccc(I)cc4F)n(C)c(=O)c(C)c32)c1 [Trametinib] (first compound max 2 µM, 7x7, partner max 1 µM) . State its measured combination Emax.
Result string: 0.741

Query string: Return reported combination Emax. Input compound: CC1(C)CCC(CN2CCN(c3ccc(C(=O)NS(=O)(=O)c4ccc(NCC5CCOCC5)c([N+](=O)[O-])c4)c(Oc4cnc5[nH]ccc5c4)c3)CC2)=C(c2ccc(Cl)cc2)C1 [Venetoclax] + C[C@@H](Nc1cc(F)cc(F)c1)c1cc(C(=O)N(C)C)cc2c(=O)cc(N3CCOCC3)oc12 [AZD8186] (first compound max 1 µM, 7x7, partner max 3 µM)
Result string: 0.398

Query string: Item N#Cc1cnc(Nc2cc(NC[C@H]3CNCCO3)c(C(F)(F)F)cn2)cn1 [SRA737] + Nc1ccn([C@@H]2O[C@H](CO)[C@@H](O)C2(F)F)c(=O)n1 [Gemcitabine] (first compound max 10 µM, 7x7, partner max 0.3 µM) : provide combination Emax
Result string: 0.857

Query string: Look up and report measured combination Emax for this entry: CS(=O)(=O)CCNCc1ccc(-c2ccc3ncnc(Nc4ccc(OCc5cccc(F)c5)c(Cl)c4)c3c2)o1 [Lapatinib] + NC1(c2ccc(-c3nc4ccn5c(=O)[nH]nc5c4cc3-c3ccccc3)cc2)CCC1 [MK-2206] (first compound max 10 µM, 7x7, partner max 10 µM)
Result string: 0.523

Query string: Provide combination Emax value for the following compound: C[C@@H]1COCCN1c1cc(C2([S@](C)(=N)=O)CC2)nc(-c2ccnc3[nH]ccc23)n1 [AZD6738] + O=C(c1cc(Cc2n[nH]c(=O)c3ccccc23)ccc1F)N1CCN(C(=O)C2CC2)CC1 [Olaparib] (first compound max 10 µM, 7x7, partner max 10 µM)
Result string: 0.42

Source listed as the supplement of paper PMC11061612.
